Target: Transforming acidic coiled-coil-containing protein 3 (Homo sapiens) (UniProt Q9Y6A5)
Experiment: inhibition of ARNT PAS-B/TACC3 complex formation – biochemical, AlphaScreen, cherry-picked samples, confirmation (AID 651703);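 also: TACC3 partner is the GST-tagged E629A mutant dimer; hits lower the signal meaning they disrupt ARNT binding to TACC3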
Conditions: AlphaScreen His-ARNT PAS-B / GST-TACC3 binding, luminescence
Recorded endpoint: AC50

[
  {
    "Molecule": "COc1cccc(/C=N/Nc2nc3ccccc3[nH]2)c1O",
    "Recorded endpoint": "AC50",
    "Recorded result": "26.6 µM"
  },
  {
    "Molecule": "CCCC(=O)NC(c1ccco1)c1cc([N+](=O)[O-])c2cccnc2c1O (stereo unspecified)",
    "Recorded endpoint": "AC50",
    "Recorded result": "8.21 µM"
  },
  {
    "Molecule": "O=C(NCCCn1ccnc1)Nc1ccc(Cl)c(Cl)c1",
    "Recorded endpoint": "AC50",
    "Recorded result": "25.2 µM"
  },
  {
    "Molecule": "CS(=O)(=O)c1cccc(C(=O)Nc2nnc(C3=COCCO3)o2)c1",
    "Recorded endpoint": "AC50",
    "Recorded result": "45.6 µM"
  },
  {
    "Molecule": "O=C(NCCCn1ccnc1)C(=O)NCC1OCCN1S(=O)(=O)c1ccc(Cl)cc1 (stereo unspecified)",
    "Recorded endpoint": "AC50",
    "Recorded result": "10.8 µM"
  },
  {
    "Molecule": "c1ccc(-c2nc3ccccn3c2NC2CCCC2)nc1",
    "Recorded endpoint": "AC50",
    "Recorded result": "13.9 µM"
  },
  {
    "Molecule": "CC(=O)NC(c1cccs1)c1cc([N+](=O)[O-])c2cccnc2c1O (stereo unspecified)",
    "Recorded endpoint": "AC50",
    "Recorded result": "2.71 µM"
  },
  {
    "Molecule": "O=C(Cc1ccccc1)Nc1nnc(-c2ccco2)o1",
    "Recorded endpoint": "AC50",
    "Recorded result": "56.9 µM"
  },
  {
    "Molecule": "O=S(=O)(Nc1cccc2cccnc12)c1ccc(S(=O)(=O)N2CCCC2)cc1",
    "Recorded endpoint": "AC50",
    "Recorded result": "23.3 µM"
  },
  {
    "Molecule": "Cc1ccccc1C(=O)Nc1cccc(C(=O)N/N=C/c2cc(Cl)cc([N+](=O)[O-])c2O)c1",
    "Recorded endpoint": "AC50",
    "Recorded result": "40 µM"
  },
  {
    "Molecule": "COc1cc(CNCc2ccccn2)ccc1OCc1ccc(Cl)cc1Cl",
    "Recorded endpoint": "AC50",
    "Recorded result": "36.6 µM"
  },
  {
    "Molecule": "Cc1nnc(-c2ccccc2)c(=O)n1/N=C/c1c(O)ccc2ccccc12",
    "Recorded endpoint": "AC50",
    "Recorded result": "49.2 µM"
  },
  {
    "Molecule": "CCN(CC)S(=O)(=O)c1ccc(NN)nc1",
    "Recorded endpoint": "AC50",
    "Recorded result": "8.98 µM"
  },
  {
    "Molecule": "CC(=O)NC(C)c1cc(Cl)c2cccnc2c1O (stereo unspecified)",
    "Recorded endpoint": "AC50",
    "Recorded result": "6.14 µM"
  },
  {
    "Molecule": "CCCCCc1cc(=O)oc2c(C(CCN3CCCC3)c3ccc(N(C)C)cc3)c(OC)cc(OC)c12 (stereo unspecified)",
    "Recorded endpoint": "AC50",
    "Recorded result": "6.86 µM"
  },
  {
    "Molecule": "CCCCn1c(NC(=O)c2ccco2)c(C(=O)OCC)c2nc3ccccc3nc21",
    "Recorded endpoint": "AC50",
    "Recorded result": "21.9 µM"
  },
  {
    "Molecule": "Oc1c(C(Nc2cccc(C(F)(F)F)c2)c2ccncc2)ccc2cccnc12 (stereo unspecified)",
    "Recorded endpoint": "AC50",
    "Recorded result": "0.575 µM"
  },
  {
    "Molecule": "CN(C)CCCNc1cc(O)c2ncccc2c1",
    "Recorded endpoint": "AC50",
    "Recorded result": "0.583 µM"
  },
  {
    "Molecule": "Cc1ccc(C)c(-n2c(SCC(N)=O)nnc2-c2ccccn2)c1",
    "Recorded endpoint": "AC50",
    "Recorded result": "20 µM"
  },
  {
    "Molecule": "CN(C)CCCNC(=O)c1ccc(-c2cc(O)c3ncccc3c2)cc1",
    "Recorded endpoint": "AC50",
    "Recorded result": "2.78 µM"
  },
  {
    "Molecule": "O=C(COC(=O)c1ccco1)Nc1nnc(-c2ccccc2)o1",
    "Recorded endpoint": "AC50",
    "Recorded result": "24.8 µM"
  },
  {
    "Molecule": "O=C(O)c1cc2c(cn1)[nH]c1ccccc12",
    "Recorded endpoint": "AC50",
    "Recorded result": "1.8 µM"
  },
  {
    "Molecule": "O=C(NC[C@H]1[C@@H](c2ccccc2)[C@@H](CO)N1Cc1ccccn1)C1CC1",
    "Recorded endpoint": "AC50",
    "Recorded result": "48.4 µM"
  },
  {
    "Molecule": "O=C(N/N=C/C=C/c1ccco1)c1cnccn1",
    "Recorded endpoint": "AC50",
    "Recorded result": "55.4 µM"
  },
  {
    "Molecule": "CCCC(=O)NC(c1cccs1)c1cc([N+](=O)[O-])c2cccnc2c1O (stereo unspecified)",
    "Recorded endpoint": "AC50",
    "Recorded result": "3.51 µM"
  },
  {
    "Molecule": "O=[N+]([O-])c1cc(Cl)cc(/C=N\\Nc2ccccn2)c1O",
    "Recorded endpoint": "AC50",
    "Recorded result": "5.13 µM"
  }
]
